B1: mouse full-length GPR56 (GPR56 FL), wild type, on HEK293T cells [mouse] / mouse tissue transglutaminase 2 C-terminal D3D4 domains (mTG2 D3D4) [modified: biotin on the AVI-tag; biotin on the AVI-tag] [mouse] (parent)
chain 1: TGVAMRIRVGDSMSMGNDFDVFAHIGNDTSETRECRLLLCARTVSYNGVLGPECGTEDINLTLDPYSENSIPLRILYEKYSGCLTESNLIKVRGLLIEPAANSYLLAERDLYLENPEIKIRVLGEPKQNRKLVAEVSLKNPLSDPLYDCIFTVEGAGLTKEQKSVEVSDPVPAGDLVKARVDLFPTDIGLHKLVVNFQCDKLKSVKGYRNVIIGPA
chain 2: GSPREDFRFCGQRNQTQQSTLHYDQSSEPHIFVWNTEETLTIRAPFLAAPDIPRFFPEPRGLYHFCLYWSRHTGRLHLRYGKHDYLLSSQASRLLCFQKQEQSLKQGAPLIATSVSSWQIPQNTSLPGAPSFIFSFHNAPHKVSHNASVDMCDLKKELQQLSRYLQHPQKAAKRPTAAFISQQLQSLESKLTSVSFLGDTLSFEEDRVNATVWKLPPTAGLEDLHIHSQKEEEQSEVQAYSLLLPRAVFQQTRGRRRDDAKRLLVVDFSSQALFQDKNSSQVLGEKVLGIVVQNTKVTNLSDPVVLTFQHQPQPKNVTLQCVFWVEDPASSSTGSWSSAGCETVSRDTQTSCLCNHLTYFAVLMVSSTEVEATHKHYLTLLSYVGCVISALACVFTIAAYLCSRRKSRDYTIKVHMNLLSAVFLLDVSFLLSEPVALTGSEAACRTSAMFLHFSLLACLSWMGLEGYNLYRLVVEVFGTYVPGYLLKLSIVGWGFPVFLVTLVALVDVNNYGPIILAVRRTPERVTYPSMCWIRDSLVSYVTNLGLFSLVFLFNLAMLATMVVQILRLRPHSQNWPHVLTLLGLSLVLGLPWALVFFSFASGTFQLVILYLFSIITSFQGFLIFLWYWSMRFQAQGGPSPLKNNSDSAKLPISSGSTSSSRI

# Variants of: B1
# assay summary: flow cytometry on cells
# condition info: with mouse tissue transglutaminase 2 C-terminal D3D4 domains (mTG2 D3D4) [modified: biotin on the AVI-tag, 5 nM TG2 D3D4 (tetramerized), GPR56 FL constructs expressed on HEK293T cells, n = 3, parent: 1, read off a plot

| changes | ratio to parent |
| --- | --- |
| chain 2 H64A | 0.64 |
| chain 2 L62D | 0.21 |
| chain 2 H64A Y68A | 0.22 |
| chain 2 H64A Y68A R79D | 0.2 |
| chain 2 S125A | 8.7 |
| chain 2 H64A S125A | 6.6 |
| chain 2 Y68A | 0.33 |
| chain 2 L62D S125A | 0.33 |
| chain 2 H64A Y68A S125A | 4.1 |
